// values below are reported Morningglory plant response rating
- Test system: morningglory (Ipomoea coccinea)
- method notes: Test D pre-/postemergence plant response
- Assay type: in vivo
- condition parameters: Postemergence, 31 g ai/ha; scale 0 to 100 (0 no effect, 100 complete control)
Hey, just send me the number, nothing else.

Study these solved cases before continuing.
CC(F)(F)c1cc(-c2ccccc2Oc2ncc(Cl)cn2)on1 [Compound 178] : 100
Cc1cc(-c2c(F)cccc2Oc2ncc(Br)cn2)on1 [Compound 230] : 5
Fc1cccc(Oc2ncc(Br)cn2)c1-c1cc(C(F)F)on1 [Compound 118] : 85
FC(F)Oc1cccc(Oc2ncc(Cl)cn2)c1-c1cc(C(F)F)on1 [Compound 131] : 75
FC(F)c1cc(-c2ccccc2Oc2ncc(Br)cn2)on1 [Compound 212] : 98

Q: Look up and state reported Morningglory plant response rating for Cc1cc(-c2ccccc2Oc2ncc(Cl)cn2)no1 [Compound 60]
Result: 40

Q: Look up and state reported Morningglory plant response rating for FC(F)(F)c1cc(-c2ccccc2Oc2ncc(Cl)cn2)ncn1 [Compound 54]
Result: 75

Q: Look up and state reported Morningglory plant response rating for Clc1cnc(Oc2ccccc2-c2cc(Cl)sn2)nc1 [Compound 192]
Result: 0

Q: Look up and state reported Morningglory plant response rating for N#Cc1cccc(Oc2ncc(Cl)cn2)c1-c1cc(C(F)F)on1 [Compound 180]
Result: 55

Q: Look up and state reported Morningglory plant response rating for FC(F)c1cc(-c2c(Cl)cccc2Oc2ncc(Cl)cn2)no1 [Compound 179]
Result: 65

Q: Look up and state reported Morningglory plant response rating for FC(Cl)c1cc(-c2ccccc2Oc2ncc(Cl)cn2)no1 (centres unmarked) [Compound 116]
Result: 10

Each recorded value in this set is attributed to patent US10131652B2.
